target: PSMA (Homo sapiens, UniProt Q04609); construct: endogenous in cells; host or cells: LNCaP cells; assay: Determination of PSMA affinity (IC50), competition with ([125I]I-BA)KuE on LNCaP cells; assay type: binding; conditions: IC50, natGa-natF-L, ([125I]I-BA)KuE 0.2 nM, 1 h, 4° C., mean ± SD
Sequence (Q04609 whole entry): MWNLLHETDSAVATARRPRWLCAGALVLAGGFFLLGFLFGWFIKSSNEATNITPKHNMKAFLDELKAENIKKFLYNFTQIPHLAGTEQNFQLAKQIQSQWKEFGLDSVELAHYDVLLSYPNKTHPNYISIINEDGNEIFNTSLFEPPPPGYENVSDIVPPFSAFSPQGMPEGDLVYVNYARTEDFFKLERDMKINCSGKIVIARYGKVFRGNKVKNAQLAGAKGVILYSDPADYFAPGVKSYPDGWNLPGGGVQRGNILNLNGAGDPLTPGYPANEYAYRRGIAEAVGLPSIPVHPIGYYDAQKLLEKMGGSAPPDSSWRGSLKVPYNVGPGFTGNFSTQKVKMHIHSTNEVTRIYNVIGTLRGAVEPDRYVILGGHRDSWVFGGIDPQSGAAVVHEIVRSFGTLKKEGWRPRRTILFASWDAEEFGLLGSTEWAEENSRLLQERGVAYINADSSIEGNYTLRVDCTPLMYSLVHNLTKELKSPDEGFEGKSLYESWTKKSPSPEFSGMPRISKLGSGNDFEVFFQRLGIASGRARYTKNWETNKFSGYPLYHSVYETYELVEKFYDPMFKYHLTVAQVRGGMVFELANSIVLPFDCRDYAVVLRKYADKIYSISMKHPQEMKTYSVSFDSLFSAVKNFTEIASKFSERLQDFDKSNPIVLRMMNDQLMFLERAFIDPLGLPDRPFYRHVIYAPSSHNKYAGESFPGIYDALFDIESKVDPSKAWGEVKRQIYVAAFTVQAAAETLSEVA
ASSAY_METRIC: IC50 (nM)

>>> measured_number("CC(C)(C)[Si](F)(c1ccc(C(=O)NC[C@@H](NC(=O)CCC(C(=O)O)N2CCN(CC(=O)O)CCN(CC(=O)O)CCN(CC(=O)O)CC2)C(=O)N[C@H](CCCCNC(=O)CCCCCCC(=O)NCCCC[C@H](NC(=O)N[C@@H](CCC(=O)O)C(=O)O)C(=O)O)C(=O)O)cc1)C(C)(C)C (stereo partly shown)")
7.3
